molecular target: WM115 cells (Homo sapiens, UniProt P05106+P06756); format: cell-based; conditions: read-out: IC50 cell adhesion, 1° Assay; WM-115 cells, vitronectin-coated plates; first independent assay (Figure S4)
Sequence (P06756 31-1048): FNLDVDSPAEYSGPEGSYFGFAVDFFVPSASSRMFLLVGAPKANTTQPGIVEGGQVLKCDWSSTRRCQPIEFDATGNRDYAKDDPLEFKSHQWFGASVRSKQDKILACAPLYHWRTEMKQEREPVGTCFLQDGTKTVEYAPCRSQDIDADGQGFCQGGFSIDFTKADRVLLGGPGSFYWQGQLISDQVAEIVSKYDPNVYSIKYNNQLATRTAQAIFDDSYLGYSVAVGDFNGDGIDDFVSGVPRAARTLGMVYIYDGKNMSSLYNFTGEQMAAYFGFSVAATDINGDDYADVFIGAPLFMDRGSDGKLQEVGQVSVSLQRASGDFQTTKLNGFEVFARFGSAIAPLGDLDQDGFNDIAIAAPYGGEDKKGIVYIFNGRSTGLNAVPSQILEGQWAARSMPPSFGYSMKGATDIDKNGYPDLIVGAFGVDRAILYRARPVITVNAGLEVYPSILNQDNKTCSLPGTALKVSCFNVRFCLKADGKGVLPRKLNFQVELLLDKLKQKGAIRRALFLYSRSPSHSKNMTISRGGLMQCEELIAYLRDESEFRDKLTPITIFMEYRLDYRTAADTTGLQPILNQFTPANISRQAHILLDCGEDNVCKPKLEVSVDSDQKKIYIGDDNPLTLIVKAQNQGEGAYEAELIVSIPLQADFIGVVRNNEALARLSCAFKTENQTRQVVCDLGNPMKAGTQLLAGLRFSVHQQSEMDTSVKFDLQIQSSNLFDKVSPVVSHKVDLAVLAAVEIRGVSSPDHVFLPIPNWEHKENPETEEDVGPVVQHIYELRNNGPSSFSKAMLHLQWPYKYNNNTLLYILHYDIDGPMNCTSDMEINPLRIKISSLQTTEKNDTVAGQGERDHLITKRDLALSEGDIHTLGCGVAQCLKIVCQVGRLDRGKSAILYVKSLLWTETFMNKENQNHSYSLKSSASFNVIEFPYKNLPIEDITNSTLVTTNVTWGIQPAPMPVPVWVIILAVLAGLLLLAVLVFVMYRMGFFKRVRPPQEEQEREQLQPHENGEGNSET
Sequence (P05106 27-788): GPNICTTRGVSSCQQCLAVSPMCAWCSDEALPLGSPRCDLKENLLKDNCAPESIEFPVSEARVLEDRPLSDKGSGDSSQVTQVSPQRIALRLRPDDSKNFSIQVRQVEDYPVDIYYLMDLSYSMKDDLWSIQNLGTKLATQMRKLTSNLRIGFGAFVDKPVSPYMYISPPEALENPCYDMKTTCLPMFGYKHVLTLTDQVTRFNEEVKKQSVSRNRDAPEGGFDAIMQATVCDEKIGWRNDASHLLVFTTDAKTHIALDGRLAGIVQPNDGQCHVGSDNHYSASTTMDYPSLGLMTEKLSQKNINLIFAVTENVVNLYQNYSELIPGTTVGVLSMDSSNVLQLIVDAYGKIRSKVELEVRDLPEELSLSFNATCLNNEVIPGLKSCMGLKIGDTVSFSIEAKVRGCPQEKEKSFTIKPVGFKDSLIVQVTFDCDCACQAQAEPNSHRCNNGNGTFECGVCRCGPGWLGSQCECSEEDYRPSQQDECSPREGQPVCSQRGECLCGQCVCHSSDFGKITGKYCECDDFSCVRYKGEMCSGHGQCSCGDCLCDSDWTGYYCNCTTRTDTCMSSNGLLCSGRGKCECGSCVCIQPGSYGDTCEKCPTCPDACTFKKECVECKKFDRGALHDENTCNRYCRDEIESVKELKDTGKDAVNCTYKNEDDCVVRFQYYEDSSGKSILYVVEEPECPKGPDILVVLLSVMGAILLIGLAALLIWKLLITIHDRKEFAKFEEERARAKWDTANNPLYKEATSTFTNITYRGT
Here, each record is paired with measured IC50 data.
Kindly provide the numeric value in µM only, without the unit symbol.

[
  {
    "compound": "CC(C)[C@@H]1NC(=O)[C@@H]2CCC[C@@H]2NC(=O)[C@H](CC(=O)O)NC(=O)CNC(=O)[C@H](CCCNC(=N)N)NC1=O [Compound 9, cyclo-[-Arg-Gly-Asp-(1R,2S)-β-ACPC-Val-]]",
    "test system": "WM115 cells (Homo sapiens, UniProt P05106+P06756)",
    "measured metric": "IC50",
    "unit symbol": "µM",
    "value measured": 117
  }
]

Now for a further compound.
Name the value of IC50 reported for CC(C)[C@@H]1NC(=O)[C@H]2CCC[C@H]2NC(=O)[C@H](CC(=O)O)NC(=O)CNC(=O)[C@H](CCCNC(=N)N)NC1=O [Compound 8, cyclo-[-Arg-Gly-Asp-(1S,2R)-β-ACPC-Val-]] when tested on WM115 cells (Homo sapiens, UniProt P05106+P06756).
52
